Molecular target: GST tagged LXRbeta LBD (ligand binding domain) (Homo sapiens)
Sequence (P55055 222-460 limits assumed): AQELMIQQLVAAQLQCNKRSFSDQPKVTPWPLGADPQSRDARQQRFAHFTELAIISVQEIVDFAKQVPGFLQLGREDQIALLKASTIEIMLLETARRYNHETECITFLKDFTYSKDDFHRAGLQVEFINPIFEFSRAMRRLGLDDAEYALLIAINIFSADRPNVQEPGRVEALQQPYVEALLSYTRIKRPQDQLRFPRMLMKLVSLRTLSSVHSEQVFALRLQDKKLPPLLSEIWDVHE
Experiment: LanthaScreen TR-FRET Liver X Receptor Coactivator Assay, LXR beta-LBD (co-activator recruitment; IP and % Emax relative to T0901317)
Settings: Inflection Point of co-activator recruitment, LXR beta-LBD, TR-FRET
Text: […]
pEC50: −log10 of the molar value.
ATTRIBUTE MEASURED: pEC50

Answered cases to consult:
Q: Supply pEC50 value. Item: CN(C)C(=O)c1ccc(N2CCC(CCCN(C)C(=O)C3(C(F)(F)F)CCCO3)CC2)nc1Cl (centres unmarked) [Example 1-56]
Result: 6.77

Q: Please indicate pEC50 recorded for COc1cccc([C@@](O)(C(=O)N(C)CC(F)CC2CCN(c3ccc(C(=O)N(C)C)c(Cl)n3)CC2)C(F)(F)F)c1 (some centres unmarked) [Example 3-3]
Result: 6.43

I: COc1cccc([C@@](O)(C(=O)N(C)CC[C@H]2CC23CCN(c2ccc(C(=O)N(C)C)c(Cl)n2)CC3)C(F)(F)F)c1 [Example 7-15]
II: CN(C)C(=O)c1ccc(N2CCC(CCCN(C)C(=O)C3(c4ccccc4)OCCO3)CC2)nc1Cl [Example 1-14]
Q: Parameter check: reported pEC50 is higher for which label, I or II ? Write the label of whichever entry you select.
Result: I

1: COc1cccc([C@@](O)(C(=O)N(C)[C@H]2C[C@H](C3CCN(c4ccc(C(=O)N(C)C)c(Cl)n4)CC3)C2)C(F)(F)F)c1 [Example 17-3]
2: Cc1cccc([C@@](O)(C(=O)N(C)CCCC2CCN(c3ccc(C(=O)N(C)C)c(Cl)n3)CC2)C(F)(F)F)c1 [Example 1-15]
Q: Which of the two gives a bigger number for pEC50: 1 or 2 ? The response must carry the label of the picked entry.
Result: 1
(1: 7.57, 2: 7.12)

P: CN(C)C(=O)c1ccc(N2CCC(CCCN(C)C(=O)[C@@]3(c4ccccc4Cl)CCCO3)CC2)nc1Cl [Example 1-64]
Q: CNC(=O)c1ccc(N2CCC([C@H]3C[C@H]3CNC(=O)[C@](O)(c3cccc(OC)c3)C(F)(F)F)CC2)nc1Cl [Example 15-11]
Q: Hi team, can someone confirm which has the larger pEC50: P or Q ? Thanks. Please respond with the label that marks your chosen entry.
Result: P

1: COc1cccc([C@@](O)(C(=O)N(C)CCCC2CCN(c3ccc(C(=O)N4CC(N)C4)c(Cl)n3)CC2)C(F)(F)F)c1 [Example 2-13]
2: COc1cccc([C@@](O)(C(=O)N(C)CCCC2CCN(c3ccc(C(=O)N(C)C)c(OC)n3)CC2)C(F)(F)F)c1 [Example 2-18]
Q: Determine, for 1 and 2 , which has the greater value of pEC50. // caller expects the label of the chosen entry
Result: 1
(1: 6.71, 2: 6.28)

----------
Target: GST tagged LXRalpha LBD (ligand binding domain) (Homo sapiens, UniProt Q13133)
Construct: purchased Invitrogen pv4655
Sequence (Q13133 209-447 limits assumed): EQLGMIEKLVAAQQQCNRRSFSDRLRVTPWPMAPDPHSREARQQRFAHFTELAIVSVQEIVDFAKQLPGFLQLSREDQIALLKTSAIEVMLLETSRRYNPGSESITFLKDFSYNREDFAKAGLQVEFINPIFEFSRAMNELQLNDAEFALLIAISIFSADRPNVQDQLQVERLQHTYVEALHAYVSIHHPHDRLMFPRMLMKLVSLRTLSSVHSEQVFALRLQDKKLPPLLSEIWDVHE
Test: LanthaScreen TR-FRET Liver X Receptor Coactivator Assay, LXR alpha-LBD (co-activator recruitment; IP and % Emax relative to T0901317)
Format: biochemical
Settings: efficacy at max dose in relation to reference T0901317, LXR alpha-LBD; read-out: LXR alpha actiivty at max dose (%)
ATTRIBUTE MEASURED: Emax (%)

I: CN(C)C(=O)c1ccc(N2CCC(CCCNC(=O)C(O)(c3ccccc3)C(F)(F)C(F)(F)F)CC2)cc1Cl (stereo not shown)
II: COc1cccc([C@@](O)(C(=O)N[C@@H](C)CCC2CCN(c3ccc(C(=O)N(C)C)c(Cl)n3)CC2)C(F)(F)F)c1
Q: Could you check which of I and II has a smaller value for Emax? State your choice using its label.
Result: II
(II: 0%, I: 27%)

P: CCOc1cccc([C@@](O)(C(=O)N(C)CCCC2CCN(c3ccc(C(=O)N(C)C)c(Cl)c3)CC2)C(F)(F)F)c1
Q: CN(C)C(=O)c1ccc(N2CCC(CCCN(C)C(=O)[C@](C)(O)c3ccccc3)CC2)nc1Cl
Q: Between P and Q , which one has the lower reported Emax value? Your answer should be the label attached to the chosen record.
Result: P
(P: 0%, Q: 6%)

A: CN(C)C(=O)c1ccc(N2CCC(CCCN(C)C(=O)[C@@]3(c4ccccc4Cl)CCCO3)CC2)nc1Cl
B: CN(C)C(=O)c1ccc(N2CCC(C)(CCCN(C)C(=O)[C@@]3(c4ccccc4)CCCO3)CC2)nc1Cl
Q: Looking at recorded values for Emax, does A or B come in lower? Pick one and reply with its label.
Result: A
